B1: WDR41 (parent)
chain: WTMQAYERNFWDPSPQLDTQQEIK

Variants of: B1
Test: protein stability index of a GFP-peptide fusion (GPS, HEK-293T) (PSI 1-6); higher = more stable;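 note: lentivirally expressed fusions sorted by FACS into six bins by GFP to DsRed ratio, PSI derived from sequencing read proportions per bin multiplied by bin number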
Settings: c terminus: a fixed tail appended
// reported protein stability index per item
Answer with a bare number; do not write a unit.

Quick one: protein stability index of A5T ? 2.57

Now consider D18P . 2.24

Now consider A5M . 2.71

Now consider Q20D . 3.42

Now consider D12H . 2.73

Now consider D18H . 2.2

Now look at this entry.
Quick one: protein stability index of Q16A ? 2.24
